The values you see were collected from ChEMBL document CHEMBL1155222.

Test system: SR
experimental.details: Anticancer activity against human SR cells after 48 hrs by sulforhodamine B assay
Assay type: functional
Under this convention, condition met denotes GI50 strictly below 20 µM and condition not met denotes GI50 at or above 20 µM.

1. CC(NC(=O)Nc1nc2ccccc2s1)(C(F)(F)F)C(F)(F)F: condition met
2. O=C(Nc1nc2ccccc2s1)NC(C(F)(F)F)C(F)(F)F: condition not met
3. CCC(NC(=O)Nc1nccs1)(C(F)(F)F)C(F)(F)F: condition not met
4. O=C(Nc1nccs1)NC(C(F)(F)F)C(F)(F)F: condition not met
5. CCC(NC(=O)Nc1nc2ccccc2s1)(C(F)(F)F)C(F)(F)F: condition met
6. CNC(=O)Nc1ccccc1: condition not met
7. O=c1[nH]cc(F)c(=O)[nH]1 [FLUOROURACIL]: condition met

###

Tested on: MDA-MB-231
experimental.details: Anticancer activity against human MDA-MB-231 cells after 48 hrs by sulforhodamine B assay
Type: functional
setup.conditions: MDA-MB-231, 48 h
measurement.kind: GI50 (µM)

1. O=C(Nc1nccs1)NC(C(F)(F)F)C(F)(F)F: 58.9
2. O=C(Nc1nc2ccccc2s1)NC(C(F)(F)F)C(F)(F)F: 22.4
3. CCC(NC(=O)Nc1nccs1)(C(F)(F)F)C(F)(F)F: 85.1
4. O=c1[nH]cc(F)c(=O)[nH]1: 6.61
5. CCC(NC(=O)Nc1nc2ccccc2s1)(C(F)(F)F)C(F)(F)F: 16.2
6. CNC(=O)Nc1ccccc1: 100
7. CC(NC(=O)Nc1nc2ccccc2s1)(C(F)(F)F)C(F)(F)F: 34.7

###

Tested on: A549
experimental.details: Anticancer activity against human A549 cells after 48 hrs by sulforhodamine B assay
Type: functional
setup.conditions: A549, 48 h
# label = yes (1) if GI50 < 40 µM else no (0)

1. CCC(NC(=O)Nc1nccs1)(C(F)(F)F)C(F)(F)F: no (0)
2. O=C(Nc1nc2ccccc2s1)NC(C(F)(F)F)C(F)(F)F: yes (1)
3. CNC(=O)Nc1ccccc1: no (0)
4. CC(NC(=O)Nc1nc2ccccc2s1)(C(F)(F)F)C(F)(F)F: yes (1)
5. CCC(NC(=O)Nc1nc2ccccc2s1)(C(F)(F)F)C(F)(F)F: yes (1)
6. O=C(Nc1nccs1)NC(C(F)(F)F)C(F)(F)F: no (0)
7. O=c1[nH]cc(F)c(=O)[nH]1 [FLUOROURACIL]: yes (1)

###

Test system: MCF7
experimental.details: Anticancer activity against human MCF7 cells after 48 hrs by sulforhodamine B assay
Assay type: functional
setup.conditions: MCF7, 48 h
# Lookup of reported GI50 keyed by entry
measurement.kind: GI50

1. O=c1[nH]cc(F)c(=O)[nH]1: 0.0794 µM
2. CCC(NC(=O)Nc1nccs1)(C(F)(F)F)C(F)(F)F: 42.7 µM
3. O=C(Nc1nc2ccccc2s1)NC(C(F)(F)F)C(F)(F)F: 28.2 µM
4. O=C(Nc1nccs1)NC(C(F)(F)F)C(F)(F)F: 40.7 µM
5. CNC(=O)Nc1ccccc1: 100 µM
6. CCC(NC(=O)Nc1nc2ccccc2s1)(C(F)(F)F)C(F)(F)F: 15.8 µM
7. CC(NC(=O)Nc1nc2ccccc2s1)(C(F)(F)F)C(F)(F)F: 38 µM
